molecular target: T1, full length human DLL4 (human, UniProt Q9NR61 27-685); experiment: FMAT competition, purified antibody vs Alexa-647 human Notch1/Fc, 293T cells with human DLL4
T1 construct: whole, on cells; also called native DLL4 expressed in HEK293 cells
T1 sequence (Q9NR61 27-685): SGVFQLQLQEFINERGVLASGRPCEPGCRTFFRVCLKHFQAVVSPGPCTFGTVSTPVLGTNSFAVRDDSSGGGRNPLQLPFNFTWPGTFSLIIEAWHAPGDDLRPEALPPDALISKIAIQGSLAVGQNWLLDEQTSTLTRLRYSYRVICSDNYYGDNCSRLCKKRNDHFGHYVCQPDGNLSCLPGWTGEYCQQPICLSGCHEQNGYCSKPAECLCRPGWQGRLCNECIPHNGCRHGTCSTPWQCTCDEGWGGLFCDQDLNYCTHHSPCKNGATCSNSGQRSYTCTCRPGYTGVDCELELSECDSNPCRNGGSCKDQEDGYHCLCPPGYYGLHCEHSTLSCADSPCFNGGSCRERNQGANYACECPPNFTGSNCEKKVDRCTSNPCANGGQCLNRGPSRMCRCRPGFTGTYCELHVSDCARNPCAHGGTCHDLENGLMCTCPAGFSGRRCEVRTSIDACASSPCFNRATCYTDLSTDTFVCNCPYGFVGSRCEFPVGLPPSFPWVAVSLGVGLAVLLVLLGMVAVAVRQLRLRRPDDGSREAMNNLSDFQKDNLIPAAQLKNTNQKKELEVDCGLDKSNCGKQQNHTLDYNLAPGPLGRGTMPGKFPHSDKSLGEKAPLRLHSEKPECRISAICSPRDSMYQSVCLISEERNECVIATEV

>  <BINDER>
20G8 (antibody, IgG4, V domains shown, Fully human; also used where no isotype is printed) VH: QVQLVQSGAEVKKPGASVKVSCKASGYTFTSYGISWVRQAPGQGLEWMGWISVYNGNTNYAQKLQGRVTMTTDTSTSTAYMEVRSLRSDDTAVYYCARDRVPRIPRTTEAFDIWGRGTMVTVCS VL: QSVLTQPPSASGTPGQRVTISCSGSSSNIGSYYVYWYQQLPGTAPKLLIYRDNQRPSGVPDRFSGSKSGTSASLAIRGLRSDDEADYYCAAWDDSLSGHWVFGGGTKLTVL

>  <% inhibition at 0.21 nM / %>
-4

$$$$
>  <BINDER>
4B3 (antibody, IgG4, V domains shown, Fully human; also used where no isotype is printed) VH: QVQLVQSGAEVRKSGASVKVSCKASGYSFTTYDINWVRQATGQGLEWMGWMNPNSGYTDYAQKFQGRVTLTRNMSIDTAYMELSSLRSEDTAVYYCARAYYYDSSAYYLFDYWGQGTLVTVSS VL: DIQMTQSPSSLSASVGDRVTITCRASQGISNYLAWFQQKPGKAPKSLIYAASSLQSGVPSKFSGSGSGTDFTLTISSLQPEDFATYFCQQYISYPLTFGGGTKVEI

>  <% inhibition at 0.21 nM / %>
-3

$$$$
>  <BINDER>
17F3 (antibody, IgG2, V domains shown, Fully human; also used where no isotype is printed) VH: QVQLVQSGAEVKKPGASVKVSCKASGYTFTNYGISWVRQAPGQGLEWMGWINAYNGNTNYAQNLQGRVTMTTDTSTNTAYMELRSLRSDDTAVYYCARVAPAAFFDYWDQGTLVTVSS VL: SYELTQPPSVSVSPGQTASITCSGDKLGDKYVCWYQQKPGQSPVLVIYQDNKRPSGIPERFSGSNSGNTATLIISGTQAMDEADYYCQAWDSSTVFGGGTKLTVL

>  <% inhibition at 0.21 nM / %>
14

$$$$

Reference source for all entries: patent US20100196385A1
